Tested on: human maximum recommended daily dose, FDA database
Experiment: DSSTox (FDAMDD) FDA Maximum (Recommended) Daily Dose Database
Conditions: TherapeuticCategory: antihypertensive; antianginal; antiarrhythmic; antiglaucomic; active compounds read low
Description: The Food and Drug Administration (FDA) Center for Drug Evaluation and Research, Office of Pharmaceutical Science, Informatics and Computational Safety Analysis Staff's Maximum Recommended Daily Dose (FDAMDD) database contains values for over 1200 pharmaceuticals listed in Martindale: The Extra Pharmacopoeia (1973, 1983, and 1993) and The Physicians' Desk Reference (1995 and 1999). […]
maximum recommended daily dose (mmol/kg-bw/day) reference
quantity-measured: maximum recommended daily dose (mmol/kg-bw/day)

compound: Cc1ccc(Cl)c(OCC(O)CNC(C)(C)C)c1 (centres undefined)
reported: 0.0245
//
compound: CC(C)NCC(O)COc1cccc2[nH]ccc12 (centres undefined)
reported: 0.00403
//
compound: CC(C)(C)NC[C@H](O)COc1nsnc1N1CCOCC1
reported: 0.00316
//
compound: CC(C)(C)NCC(O)COc1cccc2c1CCC(=O)N2 (centres undefined)
reported: 0.000571

###

Test system: human maximum recommended daily dose, FDA database
Assay: DSSTox (FDAMDD) FDA Maximum (Recommended) Daily Dose Database
Conditions: TherapeuticCategory: pituitary gonadotrophic hormone inhibitor; active compounds read low
quantity-measured: maximum recommended daily dose (mmol/kg-bw/day)

mol: CCC(=O)c1ccc(O)cc1
reported: 0.333

###

Test system: human maximum recommended daily dose, FDA database
Assay: DSSTox (FDAMDD) FDA Maximum (Recommended) Daily Dose Database
Settings: TherapeuticCategory: antianginal; antihypertensive; active compounds read low
maximum recommended daily dose (mmol/kg-bw/day) reference
quantity-measured: maximum recommended daily dose (mmol/kg-bw/day)

molecule: COC(=O)C1=C(C)NC(C)=C(C(=O)OCCN(C)Cc2ccccc2)C1c1cccc([N+](=O)[O-])c1 (configuration not stated)
reported: 0.00417
--
molecule: CCOC(=O)C1=C(COCCN)NC(C)=C(C(=O)OC)C1c1ccccc1Cl (configuration not stated)
reported: 0.000408

###

System: human maximum recommended daily dose, FDA database
Experiment: DSSTox (FDAMDD) FDA Maximum (Recommended) Daily Dose Database
Settings: TherapeuticCategory: antianxiolytic; active compounds read low
quantity-measured: maximum recommended daily dose (mmol/kg-bw/day)

mol: CCn1nc(C)c2c1C(c1ccccc1)=NCC(=O)N2
reported: 0.00496

###

Tested on: human maximum recommended daily dose, FDA database
Experiment: DSSTox (FDAMDD) FDA Maximum (Recommended) Daily Dose Database
Conditions: TherapeuticCategory: antibacterial; antineoplastic; active compounds read low
quantity-measured: maximum recommended daily dose (mmol/kg-bw/day)

mol: CC(=O)[C@]1(O)Cc2c(O)c3c(c(O)c2[C@@H](O[C@H]2C[C@H](N)[C@H](O)[C@H](C)O2)C1)C(=O)c1ccccc1C3=O
system-tested: human maximum recommended daily dose, FDA database
reported: 0.00543

###

Tested on: human maximum recommended daily dose, FDA database
Experiment: DSSTox (FDAMDD) FDA Maximum (Recommended) Daily Dose Database
Settings: TherapeuticCategory: hematopoetic; active compounds read low
quantity-measured: maximum recommended daily dose (mmol/kg-bw/day)

mol: Nc1nc2ncc(CNc3ccc(C(=O)N[C@@H](CCC(=O)O)C(=O)O)cc3)nc2c(=O)[nH]1
reported: 3.01e-05

###

System: human maximum recommended daily dose, FDA database
Assay: DSSTox (FDAMDD) FDA Maximum (Recommended) Daily Dose Database
Conditions: TherapeuticCategory: adrenergic; mydriatic; active compounds read low
quantity-measured: maximum recommended daily dose (mmol/kg-bw/day)

compound: CC(N)Cc1ccc(O)cc1 (stereo unspecified)
reported: 0.0265

###

Tested on: human maximum recommended daily dose, FDA database
Experiment: DSSTox (FDAMDD) FDA Maximum (Recommended) Daily Dose Database
Settings: TherapeuticCategory: enzyme inhibitor; antiparkinsonian; active compounds read low
quantity-measured: maximum recommended daily dose (mmol/kg-bw/day)

mol: CC(C)C[C@H]1C(=O)N2CCC[C@H]2[C@]2(O)O[C@](NC(=O)[C@@H]3C=C4c5cccc6[nH]c(Br)c(c56)C[C@H]4N(C)C3)(C(C)C)C(=O)N12
reported: 0.00255

###

System: human maximum recommended daily dose, FDA database
Experiment: DSSTox (FDAMDD) FDA Maximum (Recommended) Daily Dose Database
Conditions: TherapeuticCategory: antihypercholesterolemic; active compounds read low
quantity-measured: maximum recommended daily dose (mmol/kg-bw/day)

mol: CC[C@H](C)C(=O)O[C@H]1C[C@@H](C)C=C2C=C[C@H](C)[C@H](CC[C@@H]3C[C@@H](O)CC(=O)O3)[C@H]21
reported: 0.00329

###

System: human maximum recommended daily dose, FDA database
Assay: DSSTox (FDAMDD) FDA Maximum (Recommended) Daily Dose Database
Details: TherapeuticCategory: antidepressant; catechol-O-methyltransferase inhibitor; active compounds read low
Description: The Food and Drug Administration (FDA) Center for Drug Evaluation and Research, Office of Pharmaceutical Science, Informatics and Computational Safety Analysis Staff's Maximum Recommended Daily Dose (FDAMDD) database contains values for over 1200 pharmaceuticals listed in Martindale: The Extra Pharmacopoeia (1973, 1983, and 1993) and The Physicians' Desk Reference (1995 and 1999). […]
quantity-measured: maximum recommended daily dose (mmol/kg-bw/day)

mol: Cc1ccc(C(=O)c2cc(O)c(O)c([N+](=O)[O-])c2)cc1
reported: 0.0122

###

System: human maximum recommended daily dose, FDA database
Assay: DSSTox (FDAMDD) FDA Maximum (Recommended) Daily Dose Database
Conditions: TherapeuticCategory: antimigraine; prolactin inhibitor; active compounds read low
quantity-measured: maximum recommended daily dose (mmol/kg-bw/day)

mol: CCN(CC)C(=O)N[C@H]1C=C2c3cccc4[nH]cc(c34)C[C@H]2N(C)C1
reported: 0.000246

###

maximum recommended daily dose (mmol/kg-bw/day) reference
Test system: human maximum recommended daily dose, FDA database
Assay: DSSTox (FDAMDD) FDA Maximum (Recommended) Daily Dose Database
Conditions: TherapeuticCategory: antibacterial; active compounds read low
Starred links: 1 amine or outer side, 2 acyl side, 3 side chain; linkers in the order of their positions; H or OH if unused. Positions of bridges follow the written chain, without caps; N, C: chain ends. Non-standard residues stand in square brackets, D forms with d. Residues, ends and D or L forms follow the SMILES beside them. *: point of attachment. X1 = NC1=N[C@@H]([C@H](N[*:1])C(=O)[*:2])C[C@H](O)N1; ΔAla(Z-3-ureido) = NC(=O)N/C=C(\N)C(=O)O; β3hOrn = NCCC[C@H](N)CC(=O)*; Dap = NC[C@H](N)C(=O)O
quantity-measured: maximum recommended daily dose (mmol/kg-bw/day)

molecule: CCOC(=O)CCC(=O)O[C@H]1[C@H](O[C@@H]2[C@@H](C)[C@H](O[C@H]3C[C@@](C)(OC)[C@@H](O)[C@H](C)O3)[C@@H](C)C(=O)O[C@H](CC)[C@@](C)(O)[C@H](O)[C@@H](C)C(=O)[C@H](C)C[C@@]2(C)O)O[C@H](C)C[C@@H]1N(C)C
reported: 0.0774
//
molecule: CN[C@@H]1[C@H](O[C@H]2[C@H](O[C@H]3[C@H](O)[C@@H](O)[C@H](N=C(N)N)[C@@H](O)[C@@H]3N=C(N)N)O[C@@H](C)[C@]2(O)C=O)O[C@@H](CO)[C@H](O[C@@H]2O[C@H](CO)[C@@H](O)[C@H](O)[C@@H]2O)[C@H]1O
reported: 0.0269
//
molecule: Cc1nc(N/C(N)=N/S(=O)(=O)c2ccc(N)cc2)oc1C
reported: 0.129
//
molecule: NCCC[C@H](N)CC(=O)N[C@H]1CNC(=O)[C@H]([C@H]2C[C@H](O)NC(N)=N2)NC(=O)/C(=C/NC(N)=O)NC(=O)[C@H](CO)NC(=O)[C@H](CO)NC1=O (β3hOrn-[Dap]SS[ΔAla(Z-3-ureido)][X1]; lactam 1-C)
reported: 0.0973
//
molecule: CCn1cc(C(=O)O)c(=O)c2ccc(C)nc21
reported: 0.287
//
molecule: O=C(O)c1cn(C2CC2)c2cc(N3CCNCC3)c(F)cc2c1=O
reported: 0.0401
//
molecule: NC[C@H]1O[C@H](O[C@H]2[C@H](O)[C@@H](O)[C@H](N)C[C@@H]2N)[C@H](N)[C@@H](O)[C@@H]1O
reported: 0.31

###

Test system: human maximum recommended daily dose, FDA database
Assay: DSSTox (FDAMDD) FDA Maximum (Recommended) Daily Dose Database
Details: TherapeuticCategory: sedative; hypnotic; anesthetic; active compounds read low
quantity-measured: maximum recommended daily dose (mmol/kg-bw/day)

compound: CN1C(=O)NC(=O)C(C)(C2=CCCCC2)C1=O (stereo unspecified)
reported: 0.0353

###

System: human maximum recommended daily dose, FDA database
Test: DSSTox (FDAMDD) FDA Maximum (Recommended) Daily Dose Database
Conditions: TherapeuticCategory: diagnostic aid; active compounds read low
Description: The Food and Drug Administration (FDA) Center for Drug Evaluation and Research, Office of Pharmaceutical Science, Informatics and Computational Safety Analysis Staff's Maximum Recommended Daily Dose (FDAMDD) database contains values for over 1200 pharmaceuticals listed in Martindale: The Extra Pharmacopoeia (1973, 1983, and 1993) and The Physicians' Desk Reference (1995 and 1999). […]
quantity-measured: maximum recommended daily dose (mmol/kg-bw/day)

molecule: CCCOC(=O)Cn1cc(I)c(=O)c(I)c1
reported: 0.224
--
molecule: NCCc1ccn[nH]1
reported: 0.0045
--
molecule: CC(=O)Nc1c(I)c(NC(C)=O)c(I)c(C(=O)O)c1I
reported: 0.761
--
molecule: CNC(=O)c1c(I)c(NC(=O)CCCCC(=O)Nc2c(I)c(C(=O)O)c(I)c(C(=O)NC)c2I)c(I)c(C(=O)O)c1I
reported: 0.0798
--
molecule: CC(=O)Nc1c(I)cc(I)c(C(=O)O)c1I
reported: 0.18
--
molecule: COCC(=O)Nc1c(I)c(C(=O)NCC(O)CO)c(I)c(C(=O)N(C)CC(O)CO)c1I (stereo unspecified)
reported: 0.126
